What GPI/LMMP IC50 was measured for each of the following?
# assay system: µ opioid receptor of the guinea pig isolated ileum (guinea pig, UniProt P97266 1-98)
# Sequence (P97266 whole entry): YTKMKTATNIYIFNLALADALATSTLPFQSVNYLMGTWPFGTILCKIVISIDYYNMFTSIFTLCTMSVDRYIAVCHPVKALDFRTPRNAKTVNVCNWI
# measurement notes: cell-based or functional assay
Square brackets hold non-standard residues; d marks the D form. Primed or numbered codes have the meaning given here. Ends that are not written are not given here. * marks the point of attachment. Glc = O-glucosyl on Ser side chain (Ser(OGlu)/Ser(OGlc)); NH(3,5-(CF3)2-benzyl) = FC(F)(F)c1cc(CN*)cc(C(F)(F)F)c1; Glc″ = glucosyl on the serine side-chain oxygen; Nle = CCCC[C@H](N)C(=O)O

Incoming: Fill blank: measured GPI/LMMP IC50 of the binder Y[dA]GFS(Glc)PLW-{NH(3,5-(CF3)2-benzyl)} (also called TY042) [TyrDAlaGlyPheSer(OGlu)ProLeuTrpNHBn(CF3)2] is ____.
Outgoing: 1890 nM

Incoming: Fill blank: measured GPI/LMMP IC50 of the binder Y[dA]GF[Nle]PS(Glc)W-{NH(3,5-(CF3)2-benzyl)} (also called TY041) [TyrDAlaGlyPheNleProSer(OGlu)TrpNHBn(CF3)2] is ____.
Outgoing: 517 nM

Incoming: Fill blank: measured GPI/LMMP IC50 of the binder YAGFXPLW (D-Ala at 2; Nle at 5 (written X); C-terminal NH-3,5-Bzl(CF3)2 amide, also called TY045) [TyrDAlaGlyPheNleProLeuTrpNHBn(CF3)2] is ____.
Outgoing: 463 nM

Incoming: Fill blank: measured GPI/LMMP IC50 of the binder Y[dA]GF[Nle]S(Glc″)LW-{NH(3,5-(CF3)2-benzyl)} (also called TY044) [TyrDAlaGlyPheNleSer(OGlu)LeuTrpNHBn(CF3)2] is ____.
Outgoing: 249 nM

Attribution: patent US8026218
